src = patent US7998940B2

test_system: human vWF A1 domain (SEQ ID NO 5) (Homo sapiens, UniProt P04275, T1381A)
Sequence (P04275 with tags, fused parts or gaps T1381A): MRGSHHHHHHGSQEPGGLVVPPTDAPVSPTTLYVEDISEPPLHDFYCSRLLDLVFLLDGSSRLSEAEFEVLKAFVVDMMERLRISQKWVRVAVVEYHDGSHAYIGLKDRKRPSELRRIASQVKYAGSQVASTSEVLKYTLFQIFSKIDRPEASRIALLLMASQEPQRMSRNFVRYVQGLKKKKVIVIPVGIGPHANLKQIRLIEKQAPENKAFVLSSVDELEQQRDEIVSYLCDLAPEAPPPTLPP
procedure_text: 3-point dot blot screen, human vWF A1 domain
Type: binding
measurement_setup: rRfY aptamers; 100 nM human vWF A1 domain; ratio of fraction bound with target to fraction bound without target
From the text: When a significant positive ratio of binding of RNA in the presence of human or rabbit vWF A1 domain versus in the absence of protein was seen, the pools were cloned using the TOPO TA cloning kit (Invitrogen, Cat. #45-0641, Carlsbad, Calif.) according to the manufacturer's instructions. Round 9 and 12 pool templates were cloned and sequenced (125 total sequences), producing 48 unique clones. […]
Oligonucleotides are written 5' to 3', each unit as a sugar letter and its base; * is a phosphorothioate linkage, no mark a phosphodiester; rarer units and linkages stand in square brackets, end groups in braces. Plain capitals give the bases only. r = 2'-OH (RNA); f = 2'-fluoro
Listed below: Screen- Human/No Protein values for each entry.
measurement_label: Screen- Human/No Protein

[[record]]
molecule = "AMX201.H11: rRfY aptamer clone (nucleic acid) rGrGrArGfCrGfCrAfCfUfCrArGfCfCrAfCfCfCfUrGfUfCrGfUfCfUfUfUfUrGrGfUrArGfUfCrArGfCfCrArArArArGfCfUrArGfUfUrGrGfUfUrGfUfUfUfCrGrAfCfCfUfCfUfCfUrGfCfUrArGfC"
meas_value = 1.75

[[record]]
molecule = "AMX201.B3: rRfY aptamer clone (nucleic acid) rGrGrArGfCrGfCrAfCfUfCrArGfCfCrAfCrArGrArGfCfCfCfUrGrArGfUrGfUrAfUrGrAfUfCrGfCfCrGrArGrAfUfCfUrAfUfCrGrAfUrGfCfUfUfUfUfUfCrGrAfCfCfUfCfUfCfUrGfCfUrArGfC"
meas_value = 1.69

[[record]]
molecule = "AMX201.A8: rRfY aptamer clone (nucleic acid) rGrGrArGfCrGfCrAfCfUfCrArGfCfCrAfCrGfCfUrGfUrAfCrAfCfUrGrAfUrGfUfUrGfUrArAfCrAfUrGfUrAfCfCfCfCfCfUrGrGfCfUrGfUfUfUfCrGrAfCfCfUfCfUfCfUrGfCfUrArGfC"
meas_value = 1.82

[[record]]
molecule = "AMX201.H4: rRfY aptamer clone (nucleic acid) rGrGrArGfCrGfCrAfCfUfCrArGfCfCrAfCfUrArAfCrGrGfUfUrGrAfUfCfUfCrArGrGrAfCfUrArAfUrArGfUfCrArAfCrArArGrGrAfUrGfCrGfUfUfUfCrGrAfCfCfUfCfUfCfUrGfCfUrArGfC"
meas_value = 1.79

[[record]]
molecule = "AMX201.B11: rRfY aptamer clone (nucleic acid) rGrGrArGfCrGfCrAfCfUfCrArGfCfCrAfCrAfCfCrGrArGrGfCfUrGrGrAfUrAfUfCfUrAfCrGrArGrArGrGrArArGfUrGfCfUrGfCfUfUrGrArAfUfUfUfCrGrAfCfCfUfCfUfCfUrGfCfUrArGfC"
meas_value = 1.55

[[record]]
molecule = "AMX198.G1: rRfY aptamer clone (nucleic acid) rGrGrArGfCrGfCrAfCfUfCrArGfCfCrAfCrArAfCrAfCfUrArAfUrGrGrGrGrArArArGfUfUfCrArArGrGrAfUfUfCfUfUrGrAfCfCrGrGfUrGfCrGfUfUfUfCrGrAfCfCfUfCfUfCfUrGfCfUrArGfC"
meas_value = 1.89

[[record]]
molecule = "AMX201.D3: rRfY aptamer clone (nucleic acid) rGrGrArGfCrGfCrAfCfUfCrArGfCfCrAfCrGfCfCfCrAfCrGfUfCrArArAfUfUrAfUrArGfUfCfUrAfCfUfUfUrGrAfUrGfUrGfCfCfCrGfUrGrGfUfUfUfCrGrAfCfCfUfCfUfCfUrGfCfUrArGfC"
meas_value = 1.76

